In this section, each of the compounds is paired with its reported bioavailability.
Assay: Rat PK evaluation of the compounds
Type: in vivo
Settings: Sprague-Dawley, rat, plasma; SD rats, IV 1 mg/kg, PO 5 mg/kg, n = 3
Number in %, nothing else.

> print(dat)
                                   compound  experimental.endpoint  scale.unit  value.reported
1  O=S1(=O)CCC(Nc2nonc2C(=NO)Nc2ccc(F)c(Br)c2)C1 (stereo not drawn)        bioavailability           %            28.1
2  O=S1(=O)CCC(Nc2nonc2C(=NO)Nc2ccc(F)c(Br)c2)CC1        bioavailability           %            62.2

Turning to the following compound.
Record O=S1(=O)CC2(CC(Nc3nonc3C(=NO)Nc3ccc(F)c(Br)c3)C2)C1 , field bioavailability: 36.9

###

Test: Rat PK evaluation of the compounds
Assay type: in vivo
Conditions: Sprague-Dawley, rat, plasma; SD rats, IV 1 mg/kg, n = 3; read-out: AUCinf iv
experimental.endpoint: AUC(0-inf) (ng·h/mL)
Kindly provide the numeric value in ng·h/mL only, without the unit symbol.

Some compounds with known AUC(0-inf) results, for comparison:
> print(dat)
                                   compound  experimental.endpoint  value.reported
1  O=S1(=O)CCC(Nc2nonc2C(=NO)Nc2ccc(F)c(Br)c2)CC1             AUC(0-inf)             521
2  O=S1(=O)CC2(CC(Nc3nonc3C(=NO)Nc3ccc(F)c(Br)c3)C2)C1             AUC(0-inf)             336

Alright, here's another compound for you.
The compound O=S1(=O)CCC(Nc2nonc2C(=NO)Nc2ccc(F)c(Br)c2)C1 (stereo not drawn) showed AUC(0-inf) equal to 367

###

Test: Rat PK evaluation of the compounds
Format: in vivo
Details: Sprague-Dawley, rat, plasma; SD rats, PO 5 mg/kg, n = 3; read-out: AUCinf PO
experimental.endpoint: AUC(0-inf)

Lab note: O=S1(=O)CCC(Nc2nonc2C(=NO)Nc2ccc(F)c(Br)c2)C1 (stereo not drawn) gave AUC(0-inf) of 0.516 µg·h/mL

Record O=S1(=O)CC2(CC(Nc3nonc3C(=NO)Nc3ccc(F)c(Br)c3)C2)C1 . Reported AUC(0-inf): 0.62 µg·h/mL

Lab note: O=S1(=O)CCC(Nc2nonc2C(=NO)Nc2ccc(F)c(Br)c2)CC1 gave AUC(0-inf) of 1.62 µg·h/mL
